// reported protein stability index per item
B1: EPB41L3 (parent)
chain: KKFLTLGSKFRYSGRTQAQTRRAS

variants of: B1; assay: protein stability index of a GFP-peptide fusion (GPS, HEK-293T) (PSI 1-6); higher = more stable; conditions: c terminus: a fixed tail appended;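 also: lentivirally expressed fusions sorted by FACS into six bins by GFP to DsRed ratio, PSI derived from sequencing read proportions per bin multiplied by bin number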
Please state the value as a number alone, without comment.

protein stability index measured on L6K = 3.64

protein stability index measured on T5Q = 3.38

protein stability index measured on K2N = 2.85
